system: PP2A-B55α; assay: Single alanine mutational scan, YFP-tagged interactors immunoprecipitated from HeLa cells, Western blot; type: binding, human; settings: single alanine mutant of YFP-tagged CDCA4
// reported Experimental % binding for each item listed
The answer is to be given in %; state only the numeric part.

Solved cases below.
molecule	scaleUnit	Experimental % binding
CDCA4 E53: CDCA4, E53 to alanine (protein, UniProt Q9BXL8 1-241, looked up, variant E53A) Cell division …: MFARGLKRKCVGHEEDVEGALAGLKTVSSYSLQRQSLLDMSLVKLQLCHMLVAPNLCRSVLIANTVRQIQEEMTQDGTWRTVAPQAAERAPLDRLVSTEILCRAAWGQEGAHPAPGLGDGHTQGPVSDLCPVTSAQAPRHLQSSAWEMDGPRENRGSFHKSLDQIFETLETKNPSCMEELFSDVDSPYYDLDTVLTGMMGGARPGPCEGLEGLAPATPGPSSSCKSDLGELDHVVEILVET	%	153
CDCA4 T65: CDCA4, T65 to alanine (protein, UniProt Q9BXL8 1-241, looked up, variant T65A) Cell division …: MFARGLKRKCVGHEEDVEGALAGLKTVSSYSLQRQSLLDMSLVKLQLCHMLVEPNLCRSVLIANAVRQIQEEMTQDGTWRTVAPQAAERAPLDRLVSTEILCRAAWGQEGAHPAPGLGDGHTQGPVSDLCPVTSAQAPRHLQSSAWEMDGPRENRGSFHKSLDQIFETLETKNPSCMEELFSDVDSPYYDLDTVLTGMMGGARPGPCEGLEGLAPATPGPSSSCKSDLGELDHVVEILVET	%	28

Note: attention shifts to another entry.
In: Experimental % binding lookup needed for CDCA4 V66: CDCA4, V66 to alanine (protein, UniProt Q9BXL8 1-241, looked up, variant V66A) Cell division …: MFARGLKRKCVGHEEDVEGALAGLKTVSSYSLQRQSLLDMSLVKLQLCHMLVEPNLCRSVLIANTARQIQEEMTQDGTWRTVAPQAAERAPLDRLVSTEILCRAAWGQEGAHPAPGLGDGHTQGPVSDLCPVTSAQAPRHLQSSAWEMDGPRENRGSFHKSLDQIFETLETKNPSCMEELFSDVDSPYYDLDTVLTGMMGGARPGPCEGLEGLAPATPGPSSSCKSDLGELDHVVEILVET , thanks.
Out: 38
